Value source: PubChem BioAssay

- test_description: basal 3T3-L1 adipocyte mitochondrial potential changes, profiling panel, cell-based, JC-1 fluorescence, 3T3-L1 adipocytes, 24 h, 100 nL compound (AID 1168); note: test concentration not given here
- test_parameters: JC-1 mitochondrial fluorescence, higher = more signal, called active from +8 up or from −8 down
Activity calls are given as the source filed them.
measured_endpoint: z-score

Input: Give the measured z-score of COCCCNC(=O)[C@]1(CCC(=O)OC(C)(C)C)N=C(c2ccc(OCCCO)cc2)O[C@@H]1c1ccccc1CN=[N+]=[N-] .
Output: -0.2 (inactive)

Input: Also [N-]=[N+]=NCc1ccccc1C[C@]1(C(N)=O)COC(c2ccc(OCCCO)cc2)=N1 , if possible.
Output: 1.16 (inactive)

Input: Also COc1cc(C(O)C2C=CC3C(=O)NC(=O)C3N2Nc2ccccn2)cc(OC)c1OC (stereo unspecified) , if possible.
Output: -0.524 (inactive)

Input: Also CCCC=C(CCC)[C@@H](NC(=O)c1cccs1)c1ccc(C(F)(F)F)cc1 , if possible.
Output: -0.229 (inactive)

Input: Also CC(C)N1C(=O)C[C@@](C(=O)NCC(F)(F)F)(c2ccc([N+](=O)[O-])cc2)[C@H]1c1ccc(CO)cc1 , if possible.
Output: -0.502 (inactive)

Input: Also C=CCN1C(=O)[C@]2(O[C@H](CCn3cc([C@H](O)c4ccccc4)nn3)[C@@H]([Si](C)(C)c3ccc(OC)cc3)[C@@H]2C)c2ccccc21 , if possible.
Output: 0.203 (inactive)

Input: Also CC(C)OC(=O)C=C1C[C@@H](c2ccccn2)O[C@@H](c2ccccn2)O1 , if possible.
Output: -0.341 (inactive)

Input: Also CC1(C)[C@@H]2CC(C(O)C3C=CC4C(=O)N(Cc5ccccc5)C(=O)C4N3n3cnnc3)=C[C@H]1C2 (stereo partly specified) , if possible.
Output: 0.352 (inactive)

Input: Also COc1ccc(CCNC(=O)[C@@]2(C)c3ccccc3C(=O)N(C(C)C)[C@H]2c2ccc(CO)cc2)cc1 , if possible.
Output: 0.169 (inactive)

Input: Also COCCCNC(=O)[C@@]1(C)c2ccccc2C(=O)N(C(C)C)[C@H]1c1ccc(CO)cc1 , if possible.
Output: 0.304 (inactive)

Input: Also O[C@@H](Cc1ccccc1)[C@H]1C2C=CCCC=C2CN1Cc1cccc(Cl)c1 (stereo partly specified) , if possible.
Output: -0.173 (inactive)

----------
- Test system: PRMT1 (protein arginine N-methyltransferase 1)
- test_description: PRMT1 binders on small-molecule microarrays, primary screen, biochemical, small-molecule microarray, 635 nm fluorescence (AID 1088);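 note: binding of Prmt1 protein to compounds spotted on small-molecule microarray slides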
- test_parameters: small-molecule microarray binding, higher = more signal
For each entry below, report its composite z-score value.
Enter the number alone.

Input: Give the measured composite z-score of CC1(C)[C@@H]2CC(C(O)C3C=CC4C(=O)N(c5ccccc5)C(=O)C4N3Nc3ccc([N+](=O)[O-])cc3)=C[C@H]1C2 (stereo partly drawn) .
Output: 1.55

Input: Also COCCOC(=O)N1C(=O)[C@@]2(c3cc(C#CCC(C(=O)OC)C(=O)OC)ccc31)[C@H](C(=O)N1CCN(c3ncccn3)CC1)[C@H]1C(=O)O[C@H](c3ccccc3)[C@H](c3ccccc3)N1[C@@H]2c1ccccc1OCCO , if possible.
Output: 1.55

Input: Also O=C1C2C=CC(C(O)c3cc(C(F)(F)F)cc(C(F)(F)F)c3)N(n3cnnc3)C2C(=O)N1Cc1ccccc1 (stereo not drawn) , if possible.
Output: 0.369

Input: Also CCOC(=O)C1=C[C@@H](C(C)(C)C)N(S(=O)(=O)c2ccc(C)cc2)[C@H]1c1ccc(F)cc1 , if possible.
Output: 1.5

Input: Also CC#CC(=O)Oc1ccccc1C=CC(=O)OCC , if possible.
Output: 0.779

Input: Also COCCOC(=O)N1C(=O)[C@@]2(c3cc(C#Cc4ccc(OC)cc4)ccc31)[C@H](c1ccc(O)cc1)N1[C@H](c3ccccc3)[C@H](c3ccccc3)OC(=O)[C@H]1[C@@H]2C(=O)N1CCc2cc(OC)c(OC)cc2C1 , if possible.
Output: 1.55

Input: Also O=C1c2ccccc2[C@](Cc2ccccc2I)(C(=O)NCCN2CCOCC2)[C@H](c2ccc(CO)cc2)N1C1CCCCC1 , if possible.
Output: 1.43

Input: Also O=C1C2C=CC(C(O)Cc3ccccc3)N(n3cnnc3)C2C(=O)N1Cc1ccccc1 (stereo not drawn) , if possible.
Output: 0.411

Input: Also C=CCC(OC(C)=O)[C@@H]1[C@@H](N(Cc2ccc(-c3cccc(C(F)(F)F)c3)o2)C(=O)c2ccc(C)cc2)c2cc(OCCCO)ccc2N1C(=O)Cc1ccc2ccccc2c1 (stereo partly drawn) , if possible.
Output: 0.0457

Input: Also C=C(COC)/C(=C/C[C@H](OC(C)=O)c1ccc(CO)o1)c1cc(C(=O)OC)ccc1OC , if possible.
Output: 0.404

Input: Also COc1ccc(-c2cc3c(c(-c4ccc(Oc5ccccc5)cc4)n2)[Si](C(C)C)(C(C)C)OC3)cn1 , if possible.
Output: 0.483

Input: Also N#Cc1ccc(NN2C(C(O)C(c3ccccc3)c3ccccc3)C=CC3C(=O)N(c4ccccc4)C(=O)C32)cc1 (stereo not drawn) , if possible.
Output: 1.07

Input: Also CCOC(=O)C[C@H]1[C@H](OC(=O)c2ccc(C(=O)c3ccccc3)cc2)[C@@H](NC(=O)c2ccc3ccccc3c2)c2cc(OCCCO)ccc2N1C(=O)Cc1ccc(OC)cc1 , if possible.
Output: 0.789

Input: Also C=C(CC1([C@@H](NP(=O)(c2ccccc2)c2ccccc2)[C@H]2C[C@@H]2CCCC)CC1)c1ccccc1 , if possible.
Output: 0.759

Input: Also COCCOC(=O)N1C(=O)[C@@]2(c3cc(C#CCC(C(=O)OC)C(=O)OC)ccc31)[C@H](c1ccccc1OCCO)N1[C@H](c3ccccc3)[C@H](c3ccccc3)OC(=O)[C@H]1[C@@H]2C(=O)NC[C@H](O)c1ccccc1 , if possible.
Output: 1.54

Input: Also C=C(COC)/C(=C/C[C@@H](OC(C)=O)c1ccc(OCCO)cc1)c1cnc2ccccc2c1 , if possible.
Output: 1.19

Input: Also COC(=O)[C@H](Cc1ccccc1)N[C@@H](/C=C/C1CC1)[C@H](O)Cc1ccccc1 , if possible.
Output: 0.136

Input: Also CC(C)C(O)C1C=CC2C(=O)N(c3ccccc3)C(=O)C2N1Nc1ccc([N+](=O)[O-])cc1 (stereo not drawn) , if possible.
Output: 0.118
